src = the nanobody polyreactivity screen of Harvey et al. (2022)

assay: yeast display, Sf9 membrane polyspecificity reagent, FACS + sequencing; frameworks hold sequencing errors

{"record-sequence": "QVQLLESGGGLVQAGGTLRLSCAASGYTFAWYAMVWSRQAPGKERELVAAINNGGSTSYADSVKGRFTISRDNAKNTVYLQMNSLKREDTAVYYCAARPGAHPDRLDYWGQGTQVTVSS", "polyreactivity (PSR sort gate)": "low polyreactivity"}
{"record-sequence": "QVQLVESGGGLVQAGGSLRLSCAASGRTFIFNAMGWYRQAPGKERELVAAISSGGGTNYADSVKGRFTISRDNAKNTVYLQMNSLKPEVTAVYYCAADPRDHYSYVYDGYKYDYWGQGTQVTVSS", "polyreactivity (PSR sort gate)": "low polyreactivity"}
